Taken from ChEMBL document CHEMBL6071154.

System: NCI-H358
RUN DESCRIPTION: Antiproliferative activity against human NCI-H358 cells assessed as reduction in cell growth incubated for 72 hrs by CCK-8 assay
Format: functional, cell-based
CONDITION: NCI-H358, 72 h
READOUT KIND: IC50 (µM)

Below: 4 compounds and their reported IC50.
O=C(Nc1cc(F)cc(F)c1)Nc1cccc(COc2ncc(Cl)cn2)c1	5.85
O=C(Nc1cc(F)cc(F)c1)Nc1cccc(CNc2ccc(Cl)cc2)c1	6.97
N#Cc1ccc(OCc2cccc(NC(=O)Nc3cc(F)cc(F)c3)c2)cc1	5.8
O=C(Nc1cc(F)cc(F)c1)Nc1cccc(COc2ccc(Cl)cc2Cl)c1	6.4

[A] O=C(Nc1cc(F)cc(F)c1)Nc1cccc(COc2ccccc2Cl)c1
[B] CC(Oc1ccc(C#N)cc1)c1cccc(NC(=O)Nc2cc(F)cc(F)c2)c1 (configuration not stated)
Please state the entry with greater IC50 among A and B . Your choice should be expressed through its label.
A
(A: 8.1 µM, B: 4.73 µM)
